- ASSAY TARGET: Zap1 (UniProt P47043)
- Sequence: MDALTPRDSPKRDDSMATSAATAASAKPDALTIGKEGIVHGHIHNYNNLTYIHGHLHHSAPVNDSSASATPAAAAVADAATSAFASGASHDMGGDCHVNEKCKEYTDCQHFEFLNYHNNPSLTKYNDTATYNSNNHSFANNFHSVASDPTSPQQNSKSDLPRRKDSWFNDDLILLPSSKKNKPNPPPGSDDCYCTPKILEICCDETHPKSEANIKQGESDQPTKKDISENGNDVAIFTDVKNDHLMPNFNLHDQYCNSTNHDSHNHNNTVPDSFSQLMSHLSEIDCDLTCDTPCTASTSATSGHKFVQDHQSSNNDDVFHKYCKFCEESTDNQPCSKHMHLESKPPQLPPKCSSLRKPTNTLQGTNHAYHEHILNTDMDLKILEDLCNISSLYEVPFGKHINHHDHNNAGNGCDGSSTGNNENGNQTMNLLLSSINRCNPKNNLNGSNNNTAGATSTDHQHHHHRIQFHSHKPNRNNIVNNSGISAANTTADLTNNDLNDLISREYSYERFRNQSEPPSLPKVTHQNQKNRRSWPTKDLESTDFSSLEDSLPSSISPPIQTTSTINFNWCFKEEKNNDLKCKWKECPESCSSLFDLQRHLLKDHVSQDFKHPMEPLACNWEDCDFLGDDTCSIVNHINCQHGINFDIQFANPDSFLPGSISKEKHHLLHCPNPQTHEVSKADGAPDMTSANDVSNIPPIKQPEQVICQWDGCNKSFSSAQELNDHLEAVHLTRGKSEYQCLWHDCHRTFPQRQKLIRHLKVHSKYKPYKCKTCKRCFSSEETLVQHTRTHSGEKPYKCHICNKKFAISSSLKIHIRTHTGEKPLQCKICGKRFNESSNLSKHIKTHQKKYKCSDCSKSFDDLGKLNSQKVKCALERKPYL
- PROTOCOL SUMMARY: PBM E-score (8-mer binding enrichment) (E-score (-0.5 to 0.5)); higher = stronger / more preferred TF binding
- RUN CONDITIONS: protein concentration: 200 nM; construct: GST-full length
Over roughly 33,000 sequences, “E-score (-0.5 to 0.5)” has its median near -0.021; the highest 2% begin near 0.32. For the sample, the highest values were picked, then their nearest neighbours and some sequences at random.
VALUE KIND: PBM E-score

CHAIN: GAAAGGTC
REPORTED MEASUREMENT: 0.294
//
CHAIN: ACAACCTG
REPORTED MEASUREMENT: 0.23
//
CHAIN: ATCGATTC
REPORTED MEASUREMENT: -0.119
//
CHAIN: CCCCCTAA
REPORTED MEASUREMENT: -0.277
//
CHAIN: ACCCCGAT
REPORTED MEASUREMENT: 0.197
//
CHAIN: GAGAATAA
REPORTED MEASUREMENT: 0.0442
//
CHAIN: GACCGCGA
REPORTED MEASUREMENT: 0.259
//
CHAIN: ATAAAGCA
REPORTED MEASUREMENT: -0.0384
//
CHAIN: AAAAGTCG
REPORTED MEASUREMENT: -0.033
//
CHAIN: CCGATAGC
REPORTED MEASUREMENT: -0.225
//
CHAIN: CGTAGACC
REPORTED MEASUREMENT: -0.109
//
CHAIN: ATACCCTC
REPORTED MEASUREMENT: 0.323
//
CHAIN: AACCGCGA
REPORTED MEASUREMENT: 0.367
//
CHAIN: ATACCCTG
REPORTED MEASUREMENT: 0.306
//
CHAIN: AACCCTCT
REPORTED MEASUREMENT: 0.27
//
CHAIN: GACCCGAA
REPORTED MEASUREMENT: 0.175
//
CHAIN: CCAGAAGA
REPORTED MEASUREMENT: -0.0769
//
CHAIN: GACTTAGC
REPORTED MEASUREMENT: -0.317
//
CHAIN: AAAACCCC
REPORTED MEASUREMENT: 0.276
//
CHAIN: TAAAGGAA
REPORTED MEASUREMENT: 0.00829
//
CHAIN: AGATAGCG
REPORTED MEASUREMENT: -0.163
//
CHAIN: ATCCCTAG
REPORTED MEASUREMENT: 0.0856
//
CHAIN: CGCCCTAA
REPORTED MEASUREMENT: -0.126
//
CHAIN: CCTTTAAC
REPORTED MEASUREMENT: 0.352
//
CHAIN: GACCCTAA
REPORTED MEASUREMENT: 0.433
//
CHAIN: AGGGAGAA
REPORTED MEASUREMENT: -0.148
//
CHAIN: CAAAGGTA
REPORTED MEASUREMENT: 0.267
//
CHAIN: GGTCCTCA
REPORTED MEASUREMENT: 0.0332
//
CHAIN: CACCTCTG
REPORTED MEASUREMENT: -0.0642
//
CHAIN: TAAAGGTA
REPORTED MEASUREMENT: 0.34
//
CHAIN: CTACCCTC
REPORTED MEASUREMENT: 0.35
//
CHAIN: GTGAGTCA
REPORTED MEASUREMENT: -0.0169
//
CHAIN: TCCCCTAA
REPORTED MEASUREMENT: 0.0699
//
CHAIN: CCCCCGAA
REPORTED MEASUREMENT: -0.164
//
CHAIN: AGAACCTG
REPORTED MEASUREMENT: 0.0538
//
CHAIN: CCTTTAAG
REPORTED MEASUREMENT: 0.237
//
CHAIN: AACCCGAT
REPORTED MEASUREMENT: 0.31
//
CHAIN: AAACCTAT
REPORTED MEASUREMENT: 0.164
//
CHAIN: ATACCCGA
REPORTED MEASUREMENT: 0.224
//
CHAIN: CCGTTTGC
REPORTED MEASUREMENT: 0.0589
//
CHAIN: GGAACCTA
REPORTED MEASUREMENT: 0.146
//
CHAIN: CCGTCCCA
REPORTED MEASUREMENT: -0.0821
//
CHAIN: GAGGTAAC
REPORTED MEASUREMENT: 0.365
//
CHAIN: TACCGCGA
REPORTED MEASUREMENT: 0.328
//
CHAIN: AACCCTAG
REPORTED MEASUREMENT: 0.408
//
CHAIN: CCGCGCGG
REPORTED MEASUREMENT: 0.332
//
CHAIN: AACCCTAT
REPORTED MEASUREMENT: 0.441
//
CHAIN: CAAGTGAG
REPORTED MEASUREMENT: -0.196
//
CHAIN: ACAACCCC
REPORTED MEASUREMENT: 0.321
//
CHAIN: GCTTTAAC
REPORTED MEASUREMENT: 0.186
//
CHAIN: CACCCTAA
REPORTED MEASUREMENT: 0.369
//
CHAIN: CCACCTGA
REPORTED MEASUREMENT: 0.0282
//
CHAIN: CCCTTATA
REPORTED MEASUREMENT: 0.15
//
CHAIN: AGCCCTAA
REPORTED MEASUREMENT: -0.00909
//
CHAIN: AAAAGGTA
REPORTED MEASUREMENT: 0.405
//
CHAIN: CAGGTAAC
REPORTED MEASUREMENT: 0.254
//
CHAIN: ACCCGTAA
REPORTED MEASUREMENT: 0.333
//
CHAIN: ATTTTGAC
REPORTED MEASUREMENT: 0.203
//
CHAIN: CTACCCTA
REPORTED MEASUREMENT: 0.291
//
CHAIN: AACCGCGT
REPORTED MEASUREMENT: 0.227
//
CHAIN: ACCCCGAA
REPORTED MEASUREMENT: 0.384
//
CHAIN: CACCGCGG
REPORTED MEASUREMENT: 0.176
//
CHAIN: ACATTCAG
REPORTED MEASUREMENT: -0.0921
//
CHAIN: CGTCAGTC
REPORTED MEASUREMENT: -0.206
//
CHAIN: GACCCTCA
REPORTED MEASUREMENT: 0.189
//
CHAIN: ATACCCGC
REPORTED MEASUREMENT: 0.314
//
CHAIN: ACCTTAAG
REPORTED MEASUREMENT: 0.269
//
CHAIN: CGACTGGA
REPORTED MEASUREMENT: -0.193
//
CHAIN: GTAACCTA
REPORTED MEASUREMENT: 0.458
//
CHAIN: ACCTTATA
REPORTED MEASUREMENT: 0.339
//
CHAIN: TATCGATA
REPORTED MEASUREMENT: 0.285
//
CHAIN: AACGAATA
REPORTED MEASUREMENT: -0.00355
//
CHAIN: ATACCCTA
REPORTED MEASUREMENT: 0.459
//
CHAIN: GCAACCCA
REPORTED MEASUREMENT: 0.294
//
CHAIN: CTACCTGA
REPORTED MEASUREMENT: 0.00976
//
CHAIN: GAAAGGTA
REPORTED MEASUREMENT: 0.363
//
CHAIN: ACAACCTC
REPORTED MEASUREMENT: 0.31
//
CHAIN: CCACCTTA
REPORTED MEASUREMENT: 0.342
//
CHAIN: CGAACCTA
REPORTED MEASUREMENT: 0.00467
//
CHAIN: CACCGCGA
REPORTED MEASUREMENT: 0.0268
//
CHAIN: GGAAGGCA
REPORTED MEASUREMENT: -0.191
//
CHAIN: TAAAGGGA
REPORTED MEASUREMENT: 0.145
